Compiled IC50 measurements on Acyl-CoA desaturase 1 (Mus musculus, UniProt P13516) taken from the literature.
Lab note: compare IC50 with 200 nM, writing class 1 if less and class 0 if equal or more.

Example cases with answers are listed next.
Q: Decide: IC50 of `O=C(NCc1cccnc1)c1cc(-n2cnn(Cc3ccc(F)cc3)c2=O)n[nH]1` strictly below 200 nM?
Ans: class 1

Q: Subsequent entry: `O=C(NCc1ccc(F)c(F)c1)c1ccnc(N2CCN(Cc3cccnc3)C2=O)c1`
Ans: class 0

Q: Then this molecule: `COc1ccccc1OCc1ccc(-c2cc(C(N)=O)on2)cc1`
Ans: class 1

Q: # repeat for `NC(=O)c1cc(-c2ccc(COc3ccccc3OC(F)(F)F)cc2)no1`
Ans: class 0

Further cases:
Q: Strictly below 200 nM in IC50? `NC(=O)c1ccnc(N2CCN(Cc3ccc(F)c(F)c3)C2=O)c1`
Ans: class 0

Q: Next entry: `O=C(NCc1ccccn1)c1cc(N2CCN(Cc3ccc(F)cc3)C2=O)n[nH]1`
Ans: class 1

Q: Also `Cc1nc(-n2cc(C(=O)NCc3ccc(F)cc3)nn2)sc1C(=O)NCc1ccccc1` , if possible.
Ans: class 1

Q: Follow-up item: `O=C(NCc1cncs1)c1ccnc(N2CCN(Cc3ccc(C(F)(F)F)cc3)C2=O)c1`
Ans: class 1

Q: Now this one: `O=c1cc(N2CCN(Cc3cccc(F)c3)CC2)nc[nH]1`
Ans: class 0

Q: Also check `CC(C)c1ccccc1OCc1ccc(-c2cc(C(N)=O)on2)cc1`
Ans: class 0

Q: `O=C(NCc1ccccn1)c1ccnc(N2CCN(Cc3ccc(C(F)(F)F)cc3)C2=O)c1` ?
Ans: class 1

Q: Thanks! And Cc1nc(-n2cnn(C(C)c3ccccc3)c2=O)sc1C(N)=O (stereo not drawn) ?
Ans: class 1

Q: What about this molecule? `Cc1cc(N2CCN(Cc3ccc(F)cc3)C2=O)sc1-c1nc(Cc2ccccc2)c[nH]1`
Ans: class 0

Q: Lookup `Cc1c(Cl)cccc1OCc1ccc(-c2cc(C(N)=O)on2)cc1`
Ans: class 0

Q: Same for `NC(=O)c1cc(-c2ccc(OCc3ccccc3Br)cc2)no1`
Ans: class 1

Q: Could you do the same for `Cc1nc(N2CCN(Cc3cccc(C(F)(F)F)c3)C2=O)sc1-c1cc[nH]n1` , please?
Ans: class 1

Q: Item: `NC(=O)c1cc(-c2ccc(Cn3ccc4ccccc43)cc2)no1`
Ans: class 1

Q: Now try `Cc1nc(N2CCN(Cc3cc(Cl)cc(Cl)c3)C2=O)sc1C(=O)NCc1ccccn1` .
Ans: class 1

Q: Subsequent entry: `O=c1cc(N2CCN(Cc3cccc4c3OCO4)CC2)nc[nH]1`
Ans: class 0

Q: Next entry: `Cc1nc(-c2cncc(N(C)CCCc3ccccc3)n2)sc1C(=O)NCc1ccc(F)cc1`
Ans: class 1

Q: Same question for Cc1nc(N2C(=O)N(Cc3ccc(F)cc3)C3CC32)sc1C(=O)NCc1cccnc1 (stereo not drawn) please.
Ans: class 0

Q: Also `NC(=O)c1cc(-c2ccc(OCc3ccccc3Cl)cn2)no1` ?
Ans: class 0

Q: Same thing, different molecule: `Cc1nc(N2CCN(Cc3ccc(C(F)(F)F)cc3)C2=O)sc1Br`
Ans: class 0

Q: Now the molecule `NC(=O)c1cc(-c2ccc(OCc3ccccc3SC(F)(F)F)cc2)no1`
Ans: class 0

Q: Now consider `Cc1ccc(F)cc1OCc1ccc(-c2cc(C(N)=O)on2)cc1` and answer again.
Ans: class 1

Q: Try this molecule next: `Cc1nc(N2CCN(CCC3CC3)C2=O)sc1C(=O)NCc1ccccn1`
Ans: class 1

Q: Next entry: Cc1nc(-n2cnn(C(C)c3ccccc3)c2=O)sc1C(=O)NCc1csc(C(F)(F)F)n1 (stereo not drawn)
Ans: class 0

Q: Same for `NC(=O)c1cc(-c2ccc(COc3ccccc3F)cc2)no1`
Ans: class 0

Q: Please do the same for Cc1nc(-n2cnn(C(C)c3ccccc3)c2=O)sc1C(=O)NCc1cccnc1 (stereo not drawn) as well.
Ans: class 1

Q: Also check `Cc1ccc(CN2CCN(c3cc(=O)[nH]cn3)CC2)c(C)c1`
Ans: class 0

Q: Similarly, `Cc1nc(N2CCN(Cc3cccc(F)c3)C2=O)sc1C(N)=O` ?
Ans: class 1
